- experiment.notes: BSK_hDFCGF_SRB: Viability Assessment in the BioMAP Diversity Plus: hDFCGF Assay (AID 2283061);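 note: cells exposed to compound for 24 h before the read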
- cond: primary human foreskin fibroblasts
Active and inactive are the calls of the source. Rule for the calls: active = hit-call score of the fitted dose curve at least 0.9, where 1 is the maximum; inactive = score below 0.9.
Classes used: yes for active, no for inactive

> print(dat)
                                   molecule  assigned.class
1  COC(=O)CSc1cc(N=c2sc(=O)n3n2CCCC3)c(F)cc1Cl              no
2  CCCN(CCC)c1c([N+](=O)[O-])cc(C(F)(F)F)c(N)c1[N+](=O)[O-]             yes
3                        CCCOC(=O)NCCCN(C)C              no
4           CCOC(=O)NCCOc1ccc(Oc2ccccc2)cc1              no
5  CCOC(=O)C(C)Oc1ccc(Oc2nc3ccc(Cl)cc3o2)cc1 (centres undefined)              no
6             S=C([S-])NCCNC(=S)[S-].[Mn+2]              no
7  CCOC(=O)COc1cc(-n2ncc(C(F)(F)F)c(C)c2=O)c(F)cc1Cl              no
8  CCCCCCC(C)OC(=O)COc1nc(F)c(Cl)c(N)c1Cl (centres undefined)             yes
9                                    OB(O)O              no

These entries and their values trace back to PubChem BioAssay (EPA / NIEHS).
